Origin of the recorded values: patent US10633407B2

test system: E. coli TEM-1; test: CLSI broth dilution MIC determination; assay type: cell-based; settings: E. coli TEM-1; Gram-negative
Experimental readout: MIC (µg/mL)
Report only the number, with the unit µg/mL understood.

Below: 2 molecules and their reported MIC.
CC[C@H]1OC(=O)[C@@](C)(F)C(=O)[C@H](C)[C@@H](O[C@@H]2OC(C)CC(N(C)C)C2O)[C@](C)(OC)C[C@@H](C)C(=O)[C@H](C)[C@H]2N(C/C=C/Cn3nnnc3-c3ccccn3)C(=O)O[C@]12C (stereo partly shown) [FSM-100386] | 16
CC[C@H]1OC(=O)[C@H](C)C(=O)[C@H](C)[C@@H](O[C@@H]2OC(C)CC(N(C)C)C2O)[C@](C)(OC)C[C@@H](C)C(=O)[C@H](C)[C@H]2N(C/C=C/Cn3cc(-c4ccccn4)nn3)C(=O)O[C@]12C (stereo partly shown) [FSM-100341] | 32

Task item: Param item = CC[C@H]1OC(=O)[C@H](C)[C@@H](O[C@H]2C[C@@](C)(OC)[C@@H](O)[C@H](C)O2)[C@H](C)[C@@H](O[C@@H]2O[C@H](C)C[C@H](N(C)C)[C@H]2O)[C@](C)(O)C[C@@H](C)CN(C)[C@H](C)[C@@H](O)[C@]1(C)O [Azithro, azithromycin, reference compound] ; retrieve measured MIC.
Reply: 1

Task item: Param item = CC[C@H]1OC(=O)[C@@](C)(F)C(=O)[C@H](C)[C@@H](O[C@@H]2OC(C)CC(N(C)C)C2O)[C@](C)(OC)C[C@@H](C)C(=O)[C@H](C)[C@H]2N(C/C=C/Cn3cc(-c4cnc(N)s4)nn3)C(=O)O[C@]12C (stereo partly shown) [FSM-100240] ; retrieve measured MIC.
Reply: 32

Task item: Param item = CC[C@H]1OC(=O)[C@@](C)(F)C(=O)[C@H](C)[C@@H](O[C@@H]2OC(C)CC(N(C)C)C2O)[C@](C)(OC)C[C@@H](C)C(=O)[C@H](C)[C@H]2N(C/C=C/Cn3cc(-c4ccccn4)nn3)C(=O)O[C@]12C (stereo partly shown) [FSM-100383] ; retrieve measured MIC.
Reply: 16

====

test system: K. pneumoniae TEM-10; assay: CLSI broth dilution MIC determination; format: cell-based; conditions: Gram-negative
Listing of recorded MIC by entry.
The answer consists of two parts: a number and, after it, its unit.

CC[C@H]1OC(=O)[C@H](C)C(=O)[C@H](C)[C@@H](O[C@@H]2OC(C)CC(N(C)C)C2O)[C@](C)(OC)C[C@@H](C)C(=O)[C@H](C)[C@H]2N(C/C=C/Cn3nnnc3-c3ccccn3)C(=O)O[C@]12C (stereo partly shown) [FSM-100376] | 32 µg/mL
CC[C@H]1OC(=O)[C@H](C)C(=O)[C@H](C)[C@@H](O[C@@H]2OC(C)CC(N(C)C)C2O)[C@](C)(OC)C[C@@H](C)C(=O)[C@H](C)[C@H]2N(C/C=C/Cn3cc(-c4ccccn4)nn3)C(=O)O[C@]12C (stereo partly shown) [FSM-100341] | 32 µg/mL
CC[C@H]1OC(=O)[C@@](C)(F)C(=O)[C@H](C)[C@@H](O[C@@H]2OC(C)CC(N(C)C)C2O)[C@](C)(OC)C[C@@H](C)C(=O)[C@H](C)[C@H]2N(C/C=C/Cn3cc(-c4cccc(N)c4)nn3)C(=O)O[C@]12C (stereo partly shown) [FSM-11563] | 32 µg/mL

Now, please, on to the next molecule.
Task item: Param item = CC[C@H]1OC(=O)[C@@](C)(F)C(=O)[C@H](C)[C@@H](O[C@@H]2OC(C)CC(N(C)C)C2O)[C@](C)(OC)C[C@@H](C)C(=O)[C@H](C)[C@H]2N(C/C=C/Cn3cc(-c4cccc(N)n4)nn3)C(=O)O[C@]12C (stereo partly shown) [FSM-100407] ; retrieve measured MIC.
Reply: 32 µg/mL

====

system: E. coli MP-9 ATCC25922:tolC; assay: CLSI broth dilution MIC determination; format: cell-based; settings: Escherichia coli, ATCC25922
Experimental readout: MIC (µg/mL)
Report only the number, with the unit µg/mL understood.

CC[C@H]1OC(=O)[C@H](C)C(=O)[C@H](C)[C@@H](O[C@@H]2OC(C)CC(N(C)C)C2O)[C@](C)(OC)C[C@@H](C)C(=O)[C@H](C)[C@H]2N(CC#CCn3cc(-c4cccnn4)nn3)C(=O)O[C@]12C (some centres unmarked) | 4
CC[C@H]1OC(=O)[C@@](C)(F)C(=O)[C@H](C)[C@@H](O[C@@H]2OC(C)CC(N(C)C)C2O)[C@](C)(OC)C[C@@H](C)C(=O)[C@H](C)[C@H]2N(CC#CCn3cc(-c4cc(N)ccn4)nn3)C(=O)O[C@]12C (some centres unmarked) | 0.5
CC[C@H]1OC(=O)[C@@](C)(F)C(=O)[C@H](C)[C@@H](O[C@@H]2OC(C)CC(N(C)C)C2O)[C@](C)(OC)C[C@@H](C)C(=O)[C@H](C)[C@H]2N(CC#CCn3cc(-c4cnc(N)s4)nn3)C(=O)O[C@]12C (some centres unmarked) | 1
CC[C@H]1OC(=O)[C@@](C)(F)C(=O)[C@H](C)[C@@H](O[C@@H]2OC(C)CC(N(C)C)C2O)[C@](C)(OC)C[C@@H](C)C(=O)[C@H](C)[C@H]2N(CC#CCn3cc(-c4ccnc(N)n4)nn3)C(=O)O[C@]12C (some centres unmarked) | 4
CC[C@H]1OC(=O)[C@@](C)(F)C(=O)[C@H](C)[C@@H](O[C@@H]2OC(C)CC(N(C)C)C2O)[C@](C)(OC)C[C@@H](C)C(=O)[C@H](C)[C@H]2N(CC#CCn3cc(-c4cncc(N)n4)nn3)C(=O)O[C@]12C (some centres unmarked) | 4

Task item: Param item = CC[C@H]1OC(=O)[C@@](C)(F)C(=O)[C@H](C)[C@@H](O[C@@H]2OC(C)CC(N(C)C)C2O)[C@](C)(OC)C[C@@H](C)C(=O)[C@H](C)[C@H]2N(CC#CCn3cc(-c4cccc(N)n4)nn3)C(=O)O[C@]12C (some centres unmarked) ; retrieve measured MIC.
Reply: 2

Task item: Param item = CC[C@H]1OC(=O)[C@H](C)C(=O)[C@H](C)[C@@H](O[C@@H]2OC(C)CC(N(C)C)C2O)[C@](C)(OC)C[C@@H](C)C(=O)[C@H](C)[C@H]2N(NCCCn3nnc4ccccc43)C(=O)O[C@]12C (some centres unmarked) ; retrieve measured MIC.
Reply: 4

Task item: Param item = CC[C@H]1OC(=O)[C@@](C)(F)C(=O)[C@H](C)[C@@H](O[C@@H]2OC(C)CC(N(C)C)C2O)[C@](C)(OC)C[C@@H](C)C(=O)[C@H](C)[C@H]2N(CC#CCn3cc(-c4cc(N)ncn4)nn3)C(=O)O[C@]12C (some centres unmarked) ; retrieve measured MIC.
Reply: 4

====

tested on: S. aureus erm A genotype; test: CLSI broth dilution MIC determination; format: cell-based; details: Staphylococcus aureus; S. aureus erm A genotype (MP-620 UNT-146); read-out: MIC
Experimental readout: MIC

CC[C@H]1OC(=O)[C@H](C)C(=O)[C@H](C)[C@@H](O[C@@H]2OC(C)CC(N(C)C)C2O)[C@](C)(OC)C[C@@H](C)C(=O)[C@H](C)[C@H]2N(CC#CCn3cc(-c4cc(F)ccn4)nn3)C(=O)O[C@]12C (stereo partly drawn) | > 64 µg/mL
CC[C@H]1OC(=O)[C@H](C)[C@@H](O[C@H]2C[C@@](C)(OC)[C@@H](O)[C@H](C)O2)[C@H](C)[C@@H](O[C@@H]2O[C@H](C)C[C@H](N(C)C)[C@H]2O)[C@](C)(O)C[C@@H](C)CN(C)[C@H](C)[C@@H](O)[C@]1(C)O [Azithro, azithromycin, reference compound] | > 32 µg/mL

Now, please, on to the next compound.
Task item: Param item = CC[C@H]1OC(=O)[C@@](C)(F)C(=O)[C@H](C)[C@@H](OC2OC(C)CC(N(C)C)C2O)[C@](C)(OC)C[C@@H](C)C(=O)[C@H](C)[C@H]2N(CCCCn3cc(-c4cccc(N)c4)nn3)C(=O)O[C@]12C (stereo partly drawn) [Solithro, solithromycin, reference compound] ; retrieve measured MIC.
Reply: > 32 µg/mL

====

system: A. baumannii imipenem-resistant; assay: CLSI broth dilution MIC determination; assay type: cell-based; conditions: Gram-negative
Listing of recorded MIC by entry.
Report only the number, with the unit µg/mL understood.

Below: 3 compounds and their reported MIC.
CC[C@H]1OC(=O)[C@@](C)(F)C(=O)[C@H](C)[C@@H](O[C@@H]2OC(C)CC(N(C)C)C2O)[C@](C)(OC)C[C@@H](C)C(=O)[C@H](C)[C@H]2N(C/C=C/Cn3cc(-c4cccc(N)c4)nn3)C(=O)O[C@]12C (some centres unmarked) | 4
CC[C@H]1OC(=O)[C@H](C)C(=O)[C@H](C)[C@@H](O[C@@H]2OC(C)CC(N(C)C)C2O)[C@](C)(OC)C[C@@H](C)C(=O)[C@H](C)[C@H]2N(C/C=C/Cn3cnc(-c4ccccn4)c3)C(=O)O[C@]12C (some centres unmarked) | 16
CC[C@H]1OC(=O)[C@H](C)C(=O)[C@H](C)[C@@H](O[C@@H]2OC(C)CC(N(C)C)C2O)[C@](C)(OC)C[C@@H](C)C(=O)[C@H](C)[C@H]2N(C/C=C/Cn3cc(-c4nccs4)nn3)C(=O)O[C@]12C (some centres unmarked) | 32

Task item: Query MIC on A. baumannii imipenem-resistant for CC[C@H]1OC(=O)[C@@](C)(F)C(=O)[C@H](C)[C@@H](O[C@@H]2OC(C)CC(N(C)C)C2O)[C@](C)(OC)C[C@@H](C)C(=O)[C@H](C)[C@H]2N(C/C=C/Cn3cc(-c4cnc(N)s4)nn3)C(=O)O[C@]12C (some centres unmarked)
Reply: 32

Task item: Query MIC on A. baumannii imipenem-resistant for CC[C@H]1OC(=O)[C@H](C)C(=O)[C@H](C)[C@@H](O[C@@H]2OC(C)CC(N(C)C)C2O)[C@](C)(OC)C[C@@H](C)C(=O)[C@H](C)[C@H]2N(CC3CC3Cn3cc(-c4cccc(N)c4)nn3)C(=O)O[C@]12C (single isomer, unassigned) [FSM-100434]
Reply: 16

Task item: Query MIC on A. baumannii imipenem-resistant for CC[C@H]1OC(=O)[C@@](C)(F)C(=O)[C@H](C)[C@@H](OC2OC(C)CC(N(C)C)C2O)[C@](C)(OC)C[C@@H](C)C(=O)[C@H](C)[C@H]2N(CCCCn3cc(-c4cccc(N)c4)nn3)C(=O)O[C@]12C (some centres unmarked) [Solithro, solithromycin, reference compound]
Reply: 4

Task item: Query MIC on A. baumannii imipenem-resistant for CC[C@H]1OC(=O)[C@H](C)C(=O)[C@H](C)[C@@H](O[C@@H]2OC(C)CC(N(C)C)C2O)[C@](C)(OC)C[C@@H](C)C(=O)[C@H](C)[C@H]2N(CC3CC3Cn3cc(-c4cccc(N)c4)nn3)C(=O)O[C@]12C (single isomer, unassigned) [FSM-100428]
Reply: 16

Task item: Query MIC on A. baumannii imipenem-resistant for CC[C@H]1OC(=O)[C@@](C)(F)C(=O)[C@H](C)[C@@H](O[C@@H]2OC(C)CC(N(C)C)C2O)[C@](C)(OC)C[C@@H](C)C(=O)[C@H](C)[C@H]2N(C/C=C/Cn3cc(-c4ccccn4)nn3)C(=O)O[C@]12C (some centres unmarked)
Reply: 8

Task item: Query MIC on A. baumannii imipenem-resistant for CC[C@H]1OC(=O)[C@H](C)C(=O)[C@H](C)[C@@H](O[C@@H]2OC(C)CC(N(C)C)C2O)[C@](C)(OC)C[C@@H](C)C(=O)[C@H](C)[C@H]2N(C/C=C/Cn3cc(-c4cccc(N)n4)nn3)C(=O)O[C@]12C (some centres unmarked)
Reply: 4
